Test system: SK-OV-3 ovarian
Assay: NCI tumour cell line growth inhibition, 48 h
# Lookup of reported TGI keyed by entry
MEASUREMENT_NAME: TGI

compound=CC(=O)c1c(P(=O)(OC(C)C)OC(C)C)nn(-c2ccc([N+](=O)[O-])cc2)c1C assay_target="SK-OV-3 ovarian" recorded_result="> 100 µM"
compound=COC(=O)CCCc1c(-c2[nH]c3ccccc3c2CCCC(=O)OC)[nH]c2ccccc12 assay_target="SK-OV-3 ovarian" recorded_result="> 100 µM"
compound=Cn1c(=O)c2c(nc3sc4nc5ccccc5nc4n32)n(C)c1=O assay_target="SK-OV-3 ovarian" recorded_result="> 100 µM"
compound="CC1(CO)OC(n2cnc3cncnc32)CC1O (stereo unspecified)" assay_target="SK-OV-3 ovarian" recorded_result="> 100 µM"
compound=CCC1=C(c2ccc(OC)cc2)CC[C@@]2(CCNC2=O)[C@@H]1C assay_target="SK-OV-3 ovarian" recorded_result="> 100 µM"
compound="CC(=O)OC/C=C(\\C)CCC(Br)C(C)(C)Br (stereo unspecified)" assay_target="SK-OV-3 ovarian" recorded_result="> 10 µM"
compound="CCN(CC)CCOc1ccc(/C=C2\\CC3C4CC=C5C[C@@H](N6CCCC6)CC[C@]5(C)C4CC[C@]3(C)[C@H]2OC(C)=O)cc1OC (stereo partly specified)" assay_target="SK-OV-3 ovarian" recorded_result="6.06 µM"
compound="COC(=O)C12CCC(C(F)(F)C1=O)C2(C)C (stereo unspecified)" assay_target="SK-OV-3 ovarian" recorded_result="> 100 µM"
compound=Cc1c(C(N)=O)sc2c1c(=O)n(Cc1ccccc1)c1nnc(SCC(=O)Nc3ccc(Cl)cc3)n21 assay_target="SK-OV-3 ovarian" recorded_result="> 100 µM"
compound=CC(=O)Oc1ccc(O)c2c1CCCC2 assay_target="SK-OV-3 ovarian" recorded_result="> 100 µM"
compound=C[C@@H]1CCC[C@]2(C)O[C@H]2CC[C@@](C)(O)[C@@H]2CC3=C(CO)C(=O)O[C@H]3[C@H]1O2 assay_target="SK-OV-3 ovarian" recorded_result="> 50 µM"
compound=CCCCCCc1nn2c(-c3ccncc3)nnc2s1 assay_target="SK-OV-3 ovarian" recorded_result="> 10 µM"
compound=CN(C)CCCN1c2ccccc2CCc2cccc([N+](=O)[O-])c21 assay_target="SK-OV-3 ovarian" recorded_result="85.9 µM"
compound="O=C1c2ccc(O)cc2OC(c2cc(O)c(O)c(O)c2)C1O (stereo unspecified)" assay_target="SK-OV-3 ovarian" recorded_result="> 100 µM"
compound="FC(F)(F)C1(Cl)C(Cl)(c2ccccc2)C1(Cl)c1ccccc1 (stereo unspecified)" assay_target="SK-OV-3 ovarian" recorded_result="54.7 µM"
compound=COc1cccc2c1-c1ccccc1C2=O assay_target="SK-OV-3 ovarian" recorded_result="7.49 µM"
compound=O=c1[nH]nc(Cc2ccccc2)n1/N=C\CC/C=N\n1c(Cc2ccccc2)n[nH]c1=O assay_target="SK-OV-3 ovarian" recorded_result="> 100 µM"
compound=Cc1ccc(O)c(N=Nc2ccc(S(=O)(=O)O)cc2)n1 assay_target="SK-OV-3 ovarian" recorded_result="> 100 µM"
compound=CN(C)c1ccc(/C=C2\Oc3ccccc3C2=O)cc1 assay_target="SK-OV-3 ovarian" recorded_result="> 100 µM"
compound=CC(C)(N=NC(C)(C)C(=N)N)C(=N)N assay_target="SK-OV-3 ovarian" recorded_result="> 100 µM"
compound="CCC(C(C)N1CC(=O)NC(=O)C1)N1CC(=O)NC(=O)C1 (stereo unspecified)" assay_target="SK-OV-3 ovarian" recorded_result="> 100 µM"
compound="C=CCC12CC(=O)CCC1CC(=O)C2 (stereo unspecified)" assay_target="SK-OV-3 ovarian" recorded_result="> 100 µM"
compound="Clc1ccc(/C=C2\\CCCC3C2=Nc2ccccc2NC3c2ccc(Cl)cc2)cc1 (stereo unspecified)" assay_target="SK-OV-3 ovarian" recorded_result="> 100 µM"
compound=NC(N)=C1CN(C2CCCCC2)C(=O)NC1=O assay_target="SK-OV-3 ovarian" recorded_result="> 100 µM"
compound="Nc1nc(N)c2cc(CNc3ccc(C(=O)NC(CC(=O)O)C(=O)O)cc3)ccc2n1 (stereo unspecified)" assay_target="SK-OV-3 ovarian" recorded_result="> 100 µM"
compound=O=Cc1cc2c(s1)C(=O)c1sccc1C2=O assay_target="SK-OV-3 ovarian" recorded_result="5.48 µM"
compound=COc1cccc(/C=N/Nc2ncnc3c2cnn3-c2cccc(OC)c2)c1 assay_target="SK-OV-3 ovarian" recorded_result="> 25 µM"
compound="NC(=O)C1(c2ccccc2)Nc2ccccc2S1 (stereo unspecified)" assay_target="SK-OV-3 ovarian" recorded_result="> 100 µM"
compound="CC1CN1C1=CC(=O)c2c(c(CO)cn2C)C1=O (stereo unspecified)" assay_target="SK-OV-3 ovarian" recorded_result="23.2 µM"
compound="COc1cccc(C2C(C(=O)O)=C(CO)Oc3cc4c(cc32)OCO4)c1OC (stereo unspecified)" assay_target="SK-OV-3 ovarian" recorded_result="> 100 µM"
compound=Cc1cccc(C)c1NC(=O)/C(Cc1nc2ccc([N+](=O)[O-])cc2[nH]c1=O)=N\NC(N)=O assay_target="SK-OV-3 ovarian" recorded_result="> 100 µM"
compound=O=C(/C=C/c1ccc(OCCSCCCCCCCCCCSCCOc2ccc(/C=C/C(=O)c3ccc(Cl)cc3)cc2)cc1)c1ccc(Cl)cc1 assay_target="SK-OV-3 ovarian" recorded_result="> 92.8 µM"
compound="CCOC(=O)C(NC(=O)CC(C)C)(NC(C)C)C(F)(F)F (stereo unspecified)" assay_target="SK-OV-3 ovarian" recorded_result="> 100 µM"
compound=O=C(CON1C(=O)c2ccccc2C1=O)c1ccccc1 assay_target="SK-OV-3 ovarian" recorded_result="> 100 µM"
compound=O=C(O)CCCn1c(SCc2c(Cl)cccc2Cl)nc2ccsc2c1=O assay_target="SK-OV-3 ovarian" recorded_result="> 100 µM"
compound="CCCCCCC[C@@H](O)CC(=O)NC(CC(C)C)C(=O)NC(CCC(=O)O)C(=O)NC1C(=O)NC(C(C)C)C(=O)NC(CC(C)C)C(=O)NC(CO)C(=O)NC(CC(C)C)C(=O)NC(CO)C(=O)NC(C(C)CC)C(=O)OC1C (stereo partly specified)" assay_target="SK-OV-3 ovarian" recorded_result="34.4 µM"
